Please respond with reported phosphorylation enrichment for every item in the list.
Target: EPHB1 (UniProt P54762)
Sequence (P54762 whole entry, looked up): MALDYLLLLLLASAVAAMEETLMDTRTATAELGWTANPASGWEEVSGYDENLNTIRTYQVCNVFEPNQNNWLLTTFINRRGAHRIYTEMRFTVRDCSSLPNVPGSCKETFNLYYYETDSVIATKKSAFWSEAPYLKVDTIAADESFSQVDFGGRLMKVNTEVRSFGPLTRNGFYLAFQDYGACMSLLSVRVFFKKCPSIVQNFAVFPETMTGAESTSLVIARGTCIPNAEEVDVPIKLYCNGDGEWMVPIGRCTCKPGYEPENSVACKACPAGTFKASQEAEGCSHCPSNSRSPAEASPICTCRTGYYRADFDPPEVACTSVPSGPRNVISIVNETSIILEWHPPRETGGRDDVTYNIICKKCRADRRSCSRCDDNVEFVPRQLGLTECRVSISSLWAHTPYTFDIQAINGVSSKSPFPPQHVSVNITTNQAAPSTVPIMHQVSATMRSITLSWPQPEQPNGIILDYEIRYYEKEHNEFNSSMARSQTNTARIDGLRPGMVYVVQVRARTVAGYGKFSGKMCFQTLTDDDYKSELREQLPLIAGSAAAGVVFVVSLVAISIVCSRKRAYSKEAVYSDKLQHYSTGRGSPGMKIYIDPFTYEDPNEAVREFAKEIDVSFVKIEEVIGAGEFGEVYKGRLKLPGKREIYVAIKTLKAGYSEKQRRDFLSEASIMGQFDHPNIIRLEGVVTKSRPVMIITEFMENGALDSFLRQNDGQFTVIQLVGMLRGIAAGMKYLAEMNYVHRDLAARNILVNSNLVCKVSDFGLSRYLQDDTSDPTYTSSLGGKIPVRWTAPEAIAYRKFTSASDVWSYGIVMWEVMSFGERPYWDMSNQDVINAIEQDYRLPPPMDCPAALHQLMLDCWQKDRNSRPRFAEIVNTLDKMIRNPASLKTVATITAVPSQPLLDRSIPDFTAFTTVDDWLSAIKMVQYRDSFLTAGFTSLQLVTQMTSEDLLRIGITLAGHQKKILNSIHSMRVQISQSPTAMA
Assay: phosphorylation enrichment, bacterial display (enrichment ratio); higher = better substrate or ligand; peptides without Tyr show the background
# print the numeric value only

Determine from records and report phosphorylation enrichment for VTVLDYDKTGK [SYT1_Y365_I368T]
0.365

Determine from records and report phosphorylation enrichment for AIIGIYILRDN [CDH23_Y2949_D2954N]
0.687

Determine from records and report phosphorylation enrichment for PGNIVYSSLCG [BCOR_Y90]
0.914

Determine from records and report phosphorylation enrichment for RVLKLYGCSPS [ASTL_Y279]
0.634

Determine from records and report phosphorylation enrichment for SLNEEYTKNKT [MSH2_Y563]
0.369

Determine from records and report phosphorylation enrichment for KFDLMYAKCAF [TUBA1A_Y399_R402C]
0.72

Determine from records and report phosphorylation enrichment for GIVEDYRPPFC [ACVRL1_Y421_Y426C]
0.511

Determine from records and report phosphorylation enrichment for KNEVLYDEENH [ARFGEF1_Y314_G316E]
0.568

Determine from records and report phosphorylation enrichment for LNPFIYSLRNW [OR1A2_Y288]
1.52

Determine from records and report phosphorylation enrichment for KSMSVYCTPNK [ATP2A2_Y497]
0.696

Determine from records and report phosphorylation enrichment for CTLSVYRQLHN [LUZP1_Y1036]
0.622

Determine from records and report phosphorylation enrichment for ATGGFYSFGGG [KRT24_Y120_YF]
0.7

Determine from records and report phosphorylation enrichment for AEYGLYGAMVR [VSX2_Y222]
0.824

Determine from records and report phosphorylation enrichment for YRQNGYIPGSN [PCDHGA1_Y895_V894G]
0.381

Determine from records and report phosphorylation enrichment for PNRILYRDFRQ [MYH7_Y715_G716R]
0.544

Determine from records and report phosphorylation enrichment for SFLFHYADDSF [RAB3C_Y50_R49H]
0.498

Determine from records and report phosphorylation enrichment for RSSGGYEPRGR [FUS_Y239]
0.323

Determine from records and report phosphorylation enrichment for VEFAKYGSLQG [RET_Y809_R813Q_YF]
0.536

Determine from records and report phosphorylation enrichment for NFDRVYIYHLR [MYOF_Y1137]
0.593

Determine from records and report phosphorylation enrichment for HRDDGYMPMSP [IRS1_Y612_T608R]
0.577

Determine from records and report phosphorylation enrichment for LYSGDYYRIQG [DDR2_Y740]
29.2

Determine from records and report phosphorylation enrichment for VTHKEYFIFLE [CAMKV_Y95_R92H]
1.13

Determine from records and report phosphorylation enrichment for GSESDYIIMPN [SCARB1_Y133_V135I]
6.96

Determine from records and report phosphorylation enrichment for IGSQRYQLGVR [RB1_Y446_K447Q]
0.315

Determine from records and report phosphorylation enrichment for CTTIHYDYMCN [TP53_Y234_N235D]
0.644

Determine from records and report phosphorylation enrichment for AGLVQYYMEHH [PTPN11_Y80_E76G]
0.973

Determine from records and report phosphorylation enrichment for LENQTYFKSFE [AKAP9_Y2482]
1.24

Determine from records and report phosphorylation enrichment for GQAPGYSFTAA [CYCS_Y47_YF]
0.354

Determine from records and report phosphorylation enrichment for DPTFGYEDFTR [SESN2_Y323]
0.525

Determine from records and report phosphorylation enrichment for KELAPYDENWF [RPS19_Y48]
0.506

Determine from records and report phosphorylation enrichment for NTPNAYLRVNV [ADD2_Y440_T439A]
0.463

Determine from records and report phosphorylation enrichment for SISLKYEGRVF [ABL1_Y167_R166K_YF]
0.655

Determine from records and report phosphorylation enrichment for GNLQEYLTRHV [TGFBR2_Y336]
0.474

Determine from records and report phosphorylation enrichment for RLLVVYPWNQR [HBB_Y36_T39N]
0.391

Determine from records and report phosphorylation enrichment for RVEDACILTCN [CCT6A_Y229_Y229C]
0.622

Determine from records and report phosphorylation enrichment for FVSSFYHAFSG [ACTN4_Y265_YF]
1.51

Determine from records and report phosphorylation enrichment for NKFTTYLPWLP [C9orf24_Y126_R129W_YF]
3.63

Determine from records and report phosphorylation enrichment for LVMFFYAIFGM [SCN1A_Y1684_I1683F]
0.608

Determine from records and report phosphorylation enrichment for VDLIVYLRTNP [TK2_Y181]
0.65

Determine from records and report phosphorylation enrichment for PLQKIYNYNVL [SLC4A1_Y553_T552I]
0.773

Determine from records and report phosphorylation enrichment for YKEQGYHRLPS [RIN1_Y681_P686S]
0.245

Determine from records and report phosphorylation enrichment for RSRSPYSSRHS [CDK13_Y415]
0.422

Determine from records and report phosphorylation enrichment for LHVGFYESDVM [A2M_Y708_R704H]
1.41

Determine from records and report phosphorylation enrichment for GSERDYTYDEL [EIF2S2_Y174_E177D]
0.504

Determine from records and report phosphorylation enrichment for VSYDEYRYRSV [CFTR_Y515]
0.485

Determine from records and report phosphorylation enrichment for EAVSIYQFYGQ [CBLC_Y402_H405Y]
10.1

Determine from records and report phosphorylation enrichment for LFRFGYANTSE [SI_Y1233_C1229Y_YF]
0.378

Determine from records and report phosphorylation enrichment for FADIAYNYRQG [PAH_Y166_H170Q]
0.713

Determine from records and report phosphorylation enrichment for PPAPRYHDSAV [LZTR1_Y119_H121D]
0.658

Determine from records and report phosphorylation enrichment for ARKRKYFKKHE [NFIX_Y40]
0.511

----------
Please respond with reported phosphorylation enrichment for every item in the list.
Biological target: Fes (UniProt P07332)
Sequence (P07332 whole entry, looked up): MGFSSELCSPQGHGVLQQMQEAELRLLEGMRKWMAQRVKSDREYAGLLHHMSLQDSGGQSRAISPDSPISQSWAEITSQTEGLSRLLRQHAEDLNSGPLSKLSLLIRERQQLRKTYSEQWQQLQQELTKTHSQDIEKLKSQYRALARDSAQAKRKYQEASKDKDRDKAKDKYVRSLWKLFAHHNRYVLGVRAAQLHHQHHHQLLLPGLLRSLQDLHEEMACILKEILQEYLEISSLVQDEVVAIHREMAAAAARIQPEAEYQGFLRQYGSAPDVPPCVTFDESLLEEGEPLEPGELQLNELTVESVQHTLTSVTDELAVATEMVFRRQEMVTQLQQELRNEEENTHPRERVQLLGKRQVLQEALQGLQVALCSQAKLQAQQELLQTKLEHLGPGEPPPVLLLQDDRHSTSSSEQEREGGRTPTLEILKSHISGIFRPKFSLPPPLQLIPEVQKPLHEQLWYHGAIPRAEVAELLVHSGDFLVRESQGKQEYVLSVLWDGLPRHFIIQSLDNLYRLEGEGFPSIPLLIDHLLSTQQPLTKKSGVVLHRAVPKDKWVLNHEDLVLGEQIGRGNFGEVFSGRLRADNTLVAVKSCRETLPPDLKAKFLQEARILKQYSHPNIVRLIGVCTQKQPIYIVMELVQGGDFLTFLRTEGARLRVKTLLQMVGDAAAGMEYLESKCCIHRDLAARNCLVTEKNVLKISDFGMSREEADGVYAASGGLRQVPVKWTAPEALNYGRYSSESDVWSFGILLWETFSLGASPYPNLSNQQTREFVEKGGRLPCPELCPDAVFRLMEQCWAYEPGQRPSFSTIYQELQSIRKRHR
Test: phosphorylation enrichment, bacterial display (enrichment ratio); higher = better substrate or ligand; peptides without Tyr show the background
# print the numeric value only

Determine from records and report phosphorylation enrichment for HRDDGYMPMSP [IRS1_Y612_T608R]
0.817

Determine from records and report phosphorylation enrichment for PGNIVYSSLCG [BCOR_Y90]
1.62

Determine from records and report phosphorylation enrichment for QRIHDYYEHRY [HCN4_Y554]
0.974

----------
Target: SHP2-C SH2;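 note: peptide library displayed on the E. coli surface as eCPX fusions, selected cells deep-sequenced, score is each peptide's frequency after selection divided by its frequency in the input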
Experiment: SH2 binding enrichment of the phosphorylated peptide, bacterial display (enrichment ratio); higher = better substrate or ligand; peptides without Tyr show the background
Please respond with reported SH2 binding enrichment for every item in the list.
# print the numeric value only

Jot down SH2 binding enrichment (SHP2-C SH2) of QRRLIYRCQVG [NR2E3_Y81_R76Q] .
0.412

Jot down SH2 binding enrichment (SHP2-C SH2) of QNTVDYFDLFG [PTPN11_Y62_G60V_YF] .
0.876

Jot down SH2 binding enrichment (SHP2-C SH2) of QEITTYRRLLE [KRT14_Y415_A413T] .
0.598

Jot down SH2 binding enrichment (SHP2-C SH2) of RDLEQYVNNVN [PCDH19_Y1097] .
0.573

Jot down SH2 binding enrichment (SHP2-C SH2) of HEKKVYSFCGT [RPS6KA3_Y226_A225V] .
0.598

Jot down SH2 binding enrichment (SHP2-C SH2) of AESPEHVHMYT [FAM111A_Y511_Y511H] .
0.674

----------
Please respond with reported phosphorylation enrichment for every item in the list.
Target: EPHB1 (UniProt P54762)
Assay: phosphorylation enrichment, bacterial display (enrichment ratio); higher = better substrate or ligand; peptides without Tyr show the background

Determine from records and report phosphorylation enrichment for HGEAFYSEVKA [PAK5_Y182_P187A_YF]
1.26

Determine from records and report phosphorylation enrichment for AGVIIYTSRFQ [PFAS_Y538_A535V]
0.636

Determine from records and report phosphorylation enrichment for LYEDHYLLGTS [ASS1_Y87_R86H]
12.3

Determine from records and report phosphorylation enrichment for QTSTDYDIRFF [CSNK2A1_Y131_L128S_YF]
1.27

Determine from records and report phosphorylation enrichment for EKKKYYDTKIE [CASP5_Y104]
0.366

Determine from records and report phosphorylation enrichment for AFEQQYSPIPR [NOX1_Y373]
0.404

Determine from records and report phosphorylation enrichment for PATINYLFEKG [NDUFS8_Y84_P85L]
0.541

Determine from records and report phosphorylation enrichment for SSSGGYGGGFG [KRT19_Y61_A60G_YF]
0.341

Determine from records and report phosphorylation enrichment for GMSQAYSFSQR [DES_Y5_S7F]
0.317

----------
Tested on: c-Abl (mouse)
Experiment: phosphorylation enrichment, bacterial display (enrichment ratio); higher = better substrate or ligand; peptides without Tyr show the background
measuredMetric: phosphorylation enrichment
# print the numeric value only

Determine from records and report phosphorylation enrichment for GADAIYDHVNE [UQCR10_Y44_I47V]
0.8

Determine from records and report phosphorylation enrichment for VTAALYGCLYE [BTD_Y536_R538C]
0.954

Determine from records and report phosphorylation enrichment for NSIGNYFKPWF [DHCR24_Y299_YF]
8.06

Determine from records and report phosphorylation enrichment for KLFRVYCDMNT [FGB_Y269_P265L_YF]
0.838

Determine from records and report phosphorylation enrichment for DSSIRYLQEIF [FGG_Y135_YF]
0.545

Determine from records and report phosphorylation enrichment for ARRMEYLASQK [FGFR2_Y616_G613R]
0.286

Determine from records and report phosphorylation enrichment for HSKGIYYVQLE [MGAT4B_Y262_Q257H]
1.02

Determine from records and report phosphorylation enrichment for CTTIHYNYMSN [TP53_Y234_C238S]
0.501

Determine from records and report phosphorylation enrichment for KKYFSYAWPFY [BRDT_Y291_H288Y]
0.712

Determine from records and report phosphorylation enrichment for NGQALYAACQT [XDH_Y1092_V1091L]
2.26

Determine from records and report phosphorylation enrichment for LESILYESSVV [TRPV4_Y91_T89I]
1.01

Determine from records and report phosphorylation enrichment for SYDLDYDSVQP [MYC_Y16_N11S]
0.741

Determine from records and report phosphorylation enrichment for RFLERYIFNPE [HLA-DPB1_Y57_R61P_YF]
1

Determine from records and report phosphorylation enrichment for DSSIRYLQEIY [FGG_Y135]
0.567

Determine from records and report phosphorylation enrichment for HKGASYAFRLS [PTPRD_Y891_V892A]
0.846

Determine from records and report phosphorylation enrichment for SNFRAYATEPH [TNNI3_Y29_YF]
0.64

Determine from records and report phosphorylation enrichment for SVTCTYSPALI [TP53_Y126_N131I]
1.13

Determine from records and report phosphorylation enrichment for PMQLPYDSRWE [PDGFRA_Y582]
0.577

Determine from records and report phosphorylation enrichment for MKKKIYAMGGG [GAN_Y424]
0.519

Determine from records and report phosphorylation enrichment for ATKNDYWAMLA [WWOX_Y287_P282A]
0.881
